The measured values listed here are drawn from patent US20240270821A1.

Target: human glucagon receptor (human) (UniProt P47871)
Sequence (P47871 26-477): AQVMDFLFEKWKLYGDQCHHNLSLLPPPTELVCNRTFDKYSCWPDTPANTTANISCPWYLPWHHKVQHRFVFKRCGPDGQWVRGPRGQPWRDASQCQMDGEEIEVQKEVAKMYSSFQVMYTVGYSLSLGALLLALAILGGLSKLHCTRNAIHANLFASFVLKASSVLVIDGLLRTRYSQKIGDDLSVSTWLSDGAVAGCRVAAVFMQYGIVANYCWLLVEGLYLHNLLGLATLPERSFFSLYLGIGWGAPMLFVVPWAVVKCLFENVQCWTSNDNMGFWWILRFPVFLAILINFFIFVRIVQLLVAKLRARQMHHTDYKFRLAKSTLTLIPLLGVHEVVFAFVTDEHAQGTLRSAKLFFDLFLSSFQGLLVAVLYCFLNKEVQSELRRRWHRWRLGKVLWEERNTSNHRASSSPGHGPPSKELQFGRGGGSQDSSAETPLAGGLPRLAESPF
Test: cell-based or functional assay
Friendly reminder: cAMP Rel EC50, nM (1% HSA) below 1000 nM is yes, at or above is no.

Q: API: query returns whether the binder falls strictly under 1000 nM in cAMP Rel EC50, nM (1% HSA). Query: YXQGTFTSDXSXXLDKKAQXAFIEYLIAGGPSSGEPPPSGTEE (Aib, 4Pal, Orn, αMeL, Me4Pal; K (γGlu)2-C18 diacid; amide; synthetic construct; SITE 2: note = 2-Aminoisobutyric Acid; SITE 10: note = 3-(4-Pyridyl)-L-alanine; SITE 12: note = L-ornithine; SITE 13: note = alpha-methyl-leucine; SITE 17: note = Lysine is chemically modified through conjugation of the epsilon-amino group of the Lysine side chain with (gamma-Gl)) [Example 981]
Result: yes

Q: Just wondering, is cAMP Rel EC50, nM (1% HSA) of YXQGTXTSDYSSLLDKKAQXAFIEYLEEGGPSSGAPPPS (synthetic construct; SITE 2: note = 2-Aminoisobutyric Acid; SITE 6: note = alpha-methyl-2-fluoro-L-phenylalanine; SITE 17: note = Lysine is chemically modified through conjugation of the epsilon-amino group of the Lysine side chain with (2-[2-(2-Amino-ethoxy)-ethoxy]-acetyl)-(gamma-Glu)-CO-(CH2) 16-) [Example 409] below 1000 nM?
Result: no

Q: Strictly below 1000 nM in cAMP Rel EC50, nM (1% HSA)? YXQGTFTSDFSQXLDKKAQXAFIEYLLAGGPSSGEPPPSGS (synthetic construct; SITE 2: note = 2-Aminoisobutyric Acid; SITE 13: note = alpha-methyl-leucine; SITE 17: note = Lysine is chemically modified through conjugation of the epsilon-amino group of the Lysine side chain with (2-[2-(2-Amino-ethoxy)-ethoxy]-acetyl)-(gamma-Glu)-CO-(CH2) 16-CO2H; SITE 20: n) [Example 773]
Result: no

Q: Criterion: cAMP Rel EC50, nM (1% HSA) strictly below 1000 nM. Is it met by YXQGTFTSDXSXXLDKKAQXAFIEXLIEGGPSSGAPPPSGS (acylated Lys, C-terminal amide, non-natural residues; synthetic construct; SITE 2: note = 2-Aminoisobutyric Acid; SITE 10: note = 3-(4-Pyridyl)-L-alanine; SITE 12: note = L-ornithine; SITE 13: note = alpha-methyl-leucine; SITE 17: note = Lysine is chemically modified through conjugation of the epsilon-amino group of the Lysine side chain with (gamma-Gl)) [Example 952] ?
Result: yes

Q: Please let me know if YXQGTFTSDFSQXLDXKAQXAFIEYLLEAGPSSGAPPPSGSEEE (non-natural residues, D-Ala, lipidated Lys, C-terminal amide; synthetic construct; SITE 2: note = 2-Aminoisobutyric Acid; SITE 13: note = alpha-methyl-leucine; SITE 16: note = L-ornithine; SITE 17: note = Lysine is chemically modified through conjugation of the epsilon-amino group of the Lysine side chain with (2-[2-(2-Amino-ethoxy)-ethoxy]-acetyl)-(gamma-Glu)) [Example 1038] shows cAMP Rel EC50, nM (1% HSA) below 1000 nM.
Result: no

Q: Below 1000 nM on cAMP Rel EC50, nM (1% HSA)? Entry YXQGTFTSDFSXXLDKKAQXAFIEYLLEXGESSGAPPPSGS (acylated; synthetic construct; SITE 2: note = 2-Aminoisobutyric Acid; SITE 12: note = L-ornithine; SITE 13: note = alpha-methyl-leucine; SITE 17: note = Lysine is chemically modified through conjugation of the epsilon-amino group of the Lysine side chain with (gamma-Glu)-(2-[2-(2-Amino-ethoxy)-ethoxy]-acetyl)) [Example 244]
Result: no

Q: Please state whether cAMP Rel EC50, nM (1% HSA) is below 1000 nM for YXQGTFTSDFSXXLDKKAQXAFIEYLLEGGPSSGAPPPGGT (acylated; synthetic construct; SITE 2: note = 2-Aminoisobutyric Acid; SITE 12: note = L-ornithine; SITE 13: note = alpha-methyl-leucine; SITE 17: note = Lysine is chemically modified through conjugation of the epsilon-amino group of the Lysine side chain with (2-[2-(2-Amino-ethoxy)-ethoxy]-acetyl)-(gamma-Glu)) [Example 197]
Result: yes

Q: Report whether reported cAMP Rel EC50, nM (1% HSA) is lower than 1000 nM (strictly) for YXQGTFTSDFSXXLDKKAQXAFIEYLLEXGPSSGAPPPSGS (synthetic construct; SITE 2: note = 2-Aminoisobutyric Acid; SITE 12: note = L-ornithine; SITE 13: note = alpha-methyl-leucine; SITE 17: note = Lysine is chemically modified through conjugation of the epsilon-amino group of the Lysine side chain with (2-[2-(2-Amino-ethoxy)-ethoxy]-acetyl)-(gamma-Glu)) [Example 192]
Result: yes

Q: Threshold test, cAMP Rel EC50, nM (1% HSA) < 1000 nM: YXQGTFTSDFSRXLDKKAQXAFIEYLIEGGESSGAPPPSGS (acylated; synthetic construct; SITE 2: note = 2-Aminoisobutyric Acid; SITE 13: note = alpha-methyl-leucine; SITE 17: note = Lysine is chemically modified through conjugation of the epsilon-amino group of the Lysine side chain with (2-[2-(2-Amino-ethoxy)-ethoxy]-acetyl)-(gamma-Glu)-CO-(CH2) 16-CO2H; SITE 20: n) [Example 220]
Result: no

Q: Strictly below 1000 nM: is that where cAMP Rel EC50, nM (1% HSA) of YXQGTXTSDXXIXLDXIAQXXFIEXLIKGGPSSGEPPPE (not fully specified; synthetic construct; SITE 2: note = 2-Aminoisobutyric Acid; SITE 6: note = alpha-methyl-2-fluoro-L-phenylalanine; SITE 10: note = 3-(4-Pyridyl)-L-alanine; SITE 11: note = alpha-methyl-L-serine; SITE 13: note = alpha-methyl-leucine; SITE 16: note = L-ornithine; SITE 20: note = 2-Aminoisobutyric Acid;) [Example 444] sits?
Result: no
